target: LIMK1 (human); test: radiometric filter-binding kinase assay, Kinase HotSpot; conditions: compound 0.5 µM; ATP 10 µM
Threshold rule: residual activity greater than or equal to 90% is fulfilled; below that, not fulfilled.

Please review the following examples before continuing.
In [3]: df
Out[3]:
                            compound_smiles    class_label
0   Cc1cc(Nc2nc(-c3ccccc3)nc3ccccc23)n[nH]1  not fulfilled
1  c1ccc(-c2cnc(Nc3ccc(OCCN4CCCC4)cc3)s2)cc1  not fulfilled
2      CCc1nc(-c2ccc(OC)cc2)[nH]c1-c1ccncc1      fulfilled
3  COc1cc2c(cc1OC)-c1[nH]nc(Nc3cccc(F)c3)c1C2  not fulfilled
4          O=C(c1ccccc1)c1ccc(N2CCOCC2)cc1O  not fulfilled

Request: Check the entry "N/C(=N\N=C/c1ccc(-c2cccc([N+](=O)[O-])c2)o1)N[N+](=O)[O-]" : does residual activity equal or exceed 90%?
Result: fulfilled

Request: Check the entry "CCOc1cc2ncnc(Nc3cccc(Br)c3)c2cc1OCC" : does residual activity equal or exceed 90%?
Result: fulfilled

Request: Check the entry "COc1cc2ncnc(Nc3ccc(O)c(Br)c3)c2cc1OC" : does residual activity equal or exceed 90%?
Result: not fulfilled

Request: Check the entry "O=C(O)c1ccc2c3c1cccc3c(=O)n1c3ccccc3nc21" : does residual activity equal or exceed 90%?
Result: fulfilled

Request: Check the entry "Cn1cc(/C=C2\C(=O)Nc3ccc(S(N)(=O)=O)cc32)c2ccccc21" : does residual activity equal or exceed 90%?
Result: not fulfilled

Request: Check the entry "FC(F)(F)c1ccc(/C=C/c2nc(COc3ccc(CCCCn4ccnn4)cc3)co2)cc1" : does residual activity equal or exceed 90%?
Result: fulfilled

Request: Check the entry "N#CCCc1ccc2c(c1)-c1[nH]c3ccc([N+](=O)[O-])cc3c1CC(=O)N2" : does residual activity equal or exceed 90%?
Result: fulfilled
